Test system: NIH 3T3 fibroblasts
Conditions: read-out: IC50 (cytotoxicity); 24 hours, MTS
pIC50: −log10 of the molar value.
Quantity kind: pIC50

Reported pIC50 of O=C(O)c1ccccc1-c1c2cc(Br)c(=O)c(Br)c-2oc2c(Br)c(O)c(Br)cc12 [photoinitiator, Eosin Y] : ~3.65
